# assay_system: human DP2 (Homo sapiens)
# Construct: expressed in transfected cells; membranes prepared
# Sequence (Q9Y5Y4 whole entry): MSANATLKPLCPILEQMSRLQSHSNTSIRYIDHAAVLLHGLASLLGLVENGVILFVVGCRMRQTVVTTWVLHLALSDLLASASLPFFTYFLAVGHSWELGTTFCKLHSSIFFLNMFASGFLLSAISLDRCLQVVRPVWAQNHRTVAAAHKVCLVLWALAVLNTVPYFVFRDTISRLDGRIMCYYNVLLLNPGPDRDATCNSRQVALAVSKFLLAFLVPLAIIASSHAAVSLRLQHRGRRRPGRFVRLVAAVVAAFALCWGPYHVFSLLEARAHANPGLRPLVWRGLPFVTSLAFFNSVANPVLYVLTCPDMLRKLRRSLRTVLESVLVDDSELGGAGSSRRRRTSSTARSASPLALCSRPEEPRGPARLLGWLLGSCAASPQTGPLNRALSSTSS
# measurement_notes: DP-2 binding inhibition assay (3H-PGD2, membranes of DP2-expressing K562 cells)
# experimental_context: 4% HSA, read-out: EC50 (nM) 4% HSA
Response field label: string, one of Criterion met (EC50 strictly below 400 nM) or Criterion not met.

Lookup: Check if EC50 falls below 400 nM for O=C(NCCn1ccc(Cl)cc1=O)c1ccc(Oc2cc3c(cc2Cl)C(C(=O)O)CCO3)cc1 (stereo not shown) .
Found: Criterion not met

Lookup: Check if EC50 falls below 400 nM for O=C(Nc1cccc(-c2ccc(Cl)cc2)n1)c1ccc(Oc2c(Cl)cc3c(c2C2CC2)OCCC3C(=O)O)cc1 (stereo not shown) .
Found: Criterion met

Lookup: Check if EC50 falls below 400 nM for O=C(NC1CCN(c2cccc(C(F)(F)F)n2)CC1)c1ccc(Oc2cc3c(cc2Cl)C(C(=O)O)CCO3)cc1 (stereo not shown) .
Found: Criterion not met

Lookup: Check if EC50 falls below 400 nM for O=C(Nc1cccc(-c2ccnc(C(F)(F)F)c2)n1)c1ccc(Oc2cc3c(cc2Cl)C(C(=O)O)CCO3)cc1 (stereo not shown) .
Found: Criterion not met

Lookup: Check if EC50 falls below 400 nM for O=C(Nc1ccc(-c2ccc(Cl)c(F)c2)nn1)c1ccc(Oc2cc3c(cc2Cl)C(C(=O)O)CCO3)cc1 (stereo not shown) .
Found: Criterion met

Lookup: Check if EC50 falls below 400 nM for COc1ccc(-n2ccc(NC(=O)c3ccc(Oc4cc5c(cc4Cl)C(C(=O)O)CCO5)cc3)n2)cc1 (stereo not shown) .
Found: Criterion met

Lookup: Check if EC50 falls below 400 nM for O=C(Nc1cccc(-c2cccc(F)c2F)n1)c1ccc(Oc2cc3c(cc2Cl)C(C(=O)O)CCO3)cc1 (stereo not shown) .
Found: Criterion met

* * *

# assay_system: human DP2 (Homo sapiens)
# Construct: expressed in transfected cells; membranes prepared
# measurement_notes: DP-2 binding inhibition assay (3H-PGD2, membranes of DP2-expressing K562 cells)
# experimental_context: 1% HSA, read-out: EC50 (nM) 1% HSA
measured_property: EC50 (nM)
Reply numerically in nM, unit not repeated.

Lookup: Assign EC50 to the following record: N#Cc1cc2c(cc1Oc1ccc(C(=O)Nc3ccc(C(F)(F)F)nc3)cc1)OCCC2C(=O)O (stereo not shown) [Example 6]
Found: 524

Lookup: Assign EC50 to the following record: N#Cc1cc2c(cc1Oc1ccc(C(=O)Nc3cnc4ccccc4n3)cc1)OCCC2C(=O)O (stereo not shown) [Example 4]
Found: 370

Lookup: Assign EC50 to the following record: N#Cc1cc2c(cc1Oc1ccc(C(=O)Nc3nc4ccc(Cl)cc4s3)cc1)OCCC2C(=O)O (stereo not shown) [Example 196]
Found: 352

Lookup: Assign EC50 to the following record: O=C(Nc1cnc2cc(Cl)ccc2n1)c1ccc(Oc2cc3c(cc2Cl)C(C(=O)O)CCO3)cc1 (stereo not shown) [Example 15]
Found: 207

* * *

# assay_system: human DP2 (Homo sapiens)
# Construct: expressed in transfected cells; membranes prepared
# measurement_notes: DP-2 binding inhibition assay (3H-PGD2, membranes of DP2-expressing K562 cells)
# experimental_context: 4% HSA, read-out: EC50 (nM) 4% HSA
Exercise: for every item that follows, state its recorded EC50.
Reply numerically in nM, unit not repeated.

Lookup: Assign EC50 to the following record: O=C(Nc1cccc(-c2ccccc2Cl)n1)c1ccc(Oc2cc3c(cc2Cl)C(C(=O)O)CCO3)cc1 (stereo not drawn)
Found: 582

Lookup: Assign EC50 to the following record: O=C(NCCc1cccnc1N1CCCCC1)c1ccc(Oc2cc3c(cc2Cl)C(C(=O)O)CCO3)cc1 (stereo not drawn)
Found: 1920

Lookup: Assign EC50 to the following record: O=C(Nc1ccc(-c2cccc(Cl)c2)nn1)c1ccc(Oc2cc3c(cc2Cl)C(C(=O)O)CCO3)cc1 (stereo not drawn)
Found: 203

Lookup: Assign EC50 to the following record: COc1ccc(-c2ccc(NC(=O)c3ccc(Oc4cc5c(cc4Cl)C(C(=O)O)CCO5)cc3)nc2)cn1 (stereo not drawn)
Found: 959

Lookup: Assign EC50 to the following record: O=C(Nc1cc(-c2ccc(Cl)cc2)ccn1)c1ccc(Oc2cc3c(cc2Cl)C(C(=O)O)CCO3)cc1 (stereo not drawn)
Found: 2730

Lookup: Assign EC50 to the following record: O=C(Nc1cncc(-c2ccc(Cl)cc2)n1)c1ccc(Oc2c(Cl)cc3c(c2Cl)OCCC3C(=O)O)cc1 (stereo not drawn)
Found: 442

Lookup: Assign EC50 to the following record: O=C(Nc1ccc(-c2ccc(Cl)cc2)nc1)c1ccc(Oc2cc3c(cc2Cl)C(C(=O)O)CCO3)cc1 (stereo not drawn)
Found: 294

Lookup: Assign EC50 to the following record: N#Cc1cc2c(cc1Oc1ccc(C(=O)Nc3cc4ccccc4cn3)cc1)OCCC2C(=O)O (stereo not drawn)
Found: 774

Lookup: Assign EC50 to the following record: O=C(Nc1ccn(-c2ccccc2Cl)n1)c1ccc(Oc2cc3c(cc2Cl)C(C(=O)O)CCO3)cc1 (stereo not drawn)
Found: 47.1

Lookup: Assign EC50 to the following record: O=C(Nc1cccc(C2CC2)n1)c1ccc(Oc2cc3c(cc2Cl)C(C(=O)O)CCO3)cc1 (stereo not drawn)
Found: 1460

Lookup: Assign EC50 to the following record: COc1cccc2cc(NC(=O)c3ccc(Oc4cc5c(cc4C#N)C(C(=O)O)CCO5)cc3)cnc12 (stereo not drawn)
Found: 2070

Lookup: Assign EC50 to the following record: CCc1oc(NC(=O)c2ccc(Oc3cc4c(cc3Cl)C(C(=O)O)CCO4)cc2)nc1-c1ccccc1 (stereo not drawn)
Found: 437

Lookup: Assign EC50 to the following record: O=C(NCCn1ccc(-c2ccc(Cl)cc2)n1)c1ccc(Oc2cc3c(cc2Cl)C(C(=O)O)CCO3)cc1 (stereo not drawn)
Found: 1370

Lookup: Assign EC50 to the following record: O=C(Nc1ccc2cccc(Cl)c2n1)c1ccc(Oc2cc3c(cc2Cl)C(C(=O)O)CCO3)cc1 (stereo not drawn)
Found: 5980

Lookup: Assign EC50 to the following record: O=C(Nc1ccc(-c2cccc(C(F)(F)F)c2)cn1)c1ccc(Oc2cc3c(cc2Cl)C(C(=O)O)CCO3)cc1 (stereo not drawn)
Found: 422
